Assay: Half life in portal vein-cannulated rat
Type: ADME, organism-based
Settings: in vivo
Known half-life of a selection of molecules
Field: numeric (h). Do not append units.

Cc1ncoc1-c1nnc(SCCCN2CCOC(c3ccc(F)cc3)C2)n1C (stereo in doubt; 7); 0.8

# input for lookup
Data request, read-out half-life, for Cc1ncoc1-c1nnc(SCCCN2CCOC(c3ccc(C(F)(F)F)cc3)C2)n1C (stereo in doubt; 9)
3.5

---

Known pKi of a selection of molecules
Molecular target: D(3) dopamine receptor (Homo sapiens)
Sequence (P35462 whole entry): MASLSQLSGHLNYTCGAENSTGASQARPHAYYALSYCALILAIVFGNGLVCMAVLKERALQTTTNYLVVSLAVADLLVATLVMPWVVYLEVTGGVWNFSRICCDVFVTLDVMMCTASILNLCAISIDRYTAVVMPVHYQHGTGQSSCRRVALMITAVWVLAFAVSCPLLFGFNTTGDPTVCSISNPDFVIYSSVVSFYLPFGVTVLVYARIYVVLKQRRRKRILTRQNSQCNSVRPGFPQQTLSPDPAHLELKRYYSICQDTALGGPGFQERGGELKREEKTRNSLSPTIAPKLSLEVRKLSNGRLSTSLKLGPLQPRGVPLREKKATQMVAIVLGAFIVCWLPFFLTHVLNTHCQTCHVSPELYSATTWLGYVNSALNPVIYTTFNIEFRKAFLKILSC
Experiment: Agonist activity at human dopamine D3 receptor expressed in CHO cells after 90 mins by [35S]-GTPgamma S assay
Assay type: cell-based
pKi: −log10 of the molar value.

Solved entries:
Cn1c(SCCCN2CCOC(c3ccc(C(F)(F)F)cc3)C2)nnc1-c1cncc(C(N)=O)c1 (racemic); < 5.00
Cc1ccc(C2CN(CCCSc3nnc(-c4ocnc4C)n3C)CCO2)cc1 (racemic); < 5.00
Cn1c(SCCCN2CCOC(c3ccc(C(F)(F)F)cc3)C2)nnc1-c1ccc(C(N)=O)cc1 (racemic); < 5.00
Cn1c(SCCCN2CCOC(c3ccc(C(F)(F)F)cc3)C2)nnc1-c1ccc(-c2ncco2)cc1 (racemic); < 5.00
Cc1ncoc1-c1nnc(SCCCCN2CCOC(c3ccc(C(F)(F)F)cc3)C2)n1C (racemic); < 5.00

Data request, read-out pKi, for Cc1ncoc1-c1nnc(SCCCN2CCOC(c3ccc(F)cc3)C2)n1C (racemic)
< 5.00

Please answer likewise for Cn1cncc1-c1nnc(SCCCN2CCOC(c3ccc(C(F)(F)F)cc3)C2)n1C (racemic)
< 5.00

Please answer likewise for Cc1ccc(C2CN(CCCSc3nnc(-c4ccc(-c5noc(C)n5)cc4)n3C)CCO2)cc1 (racemic)
< 5.00
